Consider the following molecules; for each one, report its IC50.
- Target Or Test System: Recombinant (1-346) HPK1 (h) (Homo sapiens)
- Construct: Recombinant (1-346) HPK1 (h) is incubated with 8 mM MOPS pH 7.0
- Sequence (Q92918 1-346): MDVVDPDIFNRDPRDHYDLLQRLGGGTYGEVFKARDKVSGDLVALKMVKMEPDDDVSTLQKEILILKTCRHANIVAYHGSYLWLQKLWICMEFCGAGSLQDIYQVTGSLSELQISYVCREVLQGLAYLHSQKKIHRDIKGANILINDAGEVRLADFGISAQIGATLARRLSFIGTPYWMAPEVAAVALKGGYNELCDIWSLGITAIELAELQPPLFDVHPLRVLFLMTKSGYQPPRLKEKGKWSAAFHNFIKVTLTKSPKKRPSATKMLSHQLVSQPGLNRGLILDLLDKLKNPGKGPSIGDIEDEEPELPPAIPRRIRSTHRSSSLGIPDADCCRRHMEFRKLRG
- Measurement Notes: HPK1 Human STE Kinase Enzymatic Radiometric Assay
- Assay type: biochemical
- Measurement Conditions: read-out: HPK1 IC50 nM Range*

## Input What reported IC50 corresponds to COC1CCN(Cc2cc(-c3cc(-c4ccc5c(c4)CCNC5=O)c(N)nc3F)ccc2C2CCOCC2)CC1 [I-540] on Recombinant (1-346) HPK1 (h) (Homo sapiens)?
## Output 11 to 100 nM

## Input Same lookup for CC(C)N1CCN(c2ccc(-c3cc(-c4cc(F)c5c(=O)[nH]ccc5c4)c(N)nc3F)cc2)CC1 [I-372] , please.
## Output 0.1 to 10 nM

## Input Same lookup for Cc1c[nH]c(=O)c2ccc(-c3cc(-c4ccc5c(c4)[C@H](N(C)C)CO5)c(F)nc3N)cc12 [I-629] , please.
## Output 101 to 1000 nM

## Input Same lookup for Nc1nc(F)c(-c2cc3n(n2)CC(=O)NCC3)cc1-c1ccc2c(c1)CCNC2=O [I-229] , please.
## Output 11 to 100 nM

## Input Same lookup for CN1CCN(c2ccc(-c3cc(-c4ccc5c(c4)C(C)(C)NC5=O)c(N)nc3F)cc2)C=N1 [I-37, 2,2,2-trifluoroacetate] , please.
## Output 11 to 100 nM

## Input Same lookup for CC(C)N1CCN(c2ccc(-c3cc(-c4cc(F)c5c(c4)CCNC5=O)c(N)nc3F)cc2F)CC1 [I-386] , please.
## Output 0.1 to 10 nM

## Input Same lookup for Nc1nc(F)c(-c2ccc(S(=O)(=O)C3CCNCC3)cc2)cc1-c1ccc2c(c1)CCNC2=O [I-128] , please.
## Output 11 to 100 nM

## Input Same lookup for CC(C)N1CCN(c2ccc(-c3cc(-c4cc5c(cc4F)C(=O)NCC5)c(N)nc3F)cn2)CC1 [I-226] , please.
## Output 0.1 to 10 nM
